Where these numbers come from: PubChem BioAssay

Listed below: inhibition values for each entry.
assay: inhibitors of E-selectin induction by TNFa, primary screen, imaging, HUVEC, immunofluorescence, MLSMR starter and 10KST1 sets (AID 487); conditions: HUVEC TNFalpha-induced E-selectin immunofluorescence imaging, at 2 µM; stronger effect = higher value;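 also: signal is fraction of cell area covered by stained E-selectin grains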
Provide only the numeric value, understood in %.

Look over these answered cases.
{"Molecule": "CCOC(=O)CCCCC(=O)NC(CO)C(=O)NC (stereo unspecified)", "Unit Abbreviation": "%", "inhibition": -97.8}
{"Molecule": "C[C@@H]1CCC[C@H](C)N1NC(=O)c1ccc(Cl)c(S(N)(=O)=O)c1", "Unit Abbreviation": "%", "inhibition": -55.3}
{"Molecule": "CCC(NC(C)C)C(O)c1ccc(O)c2[nH]c(=O)ccc12 (stereo unspecified)", "Unit Abbreviation": "%", "inhibition": -80}

Dear colleague, I am looking for the recorded inhibition of the following molecule: Cc1cc(NC(=O)C2=C(O)c3ccccc3S(=O)(=O)N2C)no1
-39.3

So what's the measured inhibition for this one? O=C(CCC(=O)CCN1CCCCC1)CCN1CCCCC1
5.3

Need inhibition, item Cc1c(N=Cc2c(O)n(C3CCCCC3)c(=O)[nH]c2=O)c(=O)n(-c2ccccc2)n1C
-93.8

---

assay: DUSP6 inhibitors restoring Erk phosphorylation by chemical complementation, primary imaging in DUSP6-transfected HeLa (AID 609); conditions: HeLa MKP-3 transfected, phospho-Erk imaging KS statistic; measured here: nuclear pErk red intensity z-score; at 10 µM; stronger effect = higher value; cells stimulated with TPA for 15 min
Below, each entry is listed alongside its reported z-score.
Please give the numeric answer without any surrounding text.

{"Compound": "C[N+](C)(C)CCOP(=O)([O-])OC[C@H](O)CO", "z-score": -0.871}
{"Compound": "N#Cc1c(NC(=O)CCC(=O)O)sc2c1CCCC2", "z-score": -1.22}
{"Compound": "CCc1cccc(CC)c1N(COC)C(=O)Cn1nnc2ccccc21", "z-score": -0.0174}

Entry COc1cccc(C2=CC(c3ccccc3)n3ncnc3N2)c1 (stereo unspecified) : reported z-score = ?
0.0878

Entry CCOC(=O)CSC1=C(C#N)C(c2ccc(C)cc2)C(C(=O)OC)C(=O)N1 (stereo unspecified) has what z-score?
-0.921

Data request, read-out z-score, for CN1c2ccccc2-c2nc3ccccc3n2C1c1ccco1 (stereo unspecified)
-0.101

---

test: inhibitors of Chlamydomonas gravitaxis, primary screen, whole organism, Chlamydomonas reinhardtii, WT vs cilia-less mutant, absorbance, 96-well (AID 463189); conditions: OD600 absorbance, 2 days, at 10 µM, stronger effect = higher value;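 also: 0% = wild type cc124 cells in DMSO and 100% = ciliumless bld1 mutant cells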
Assay Metric: inhibition (%)
State the answer as a number, implicitly in %.

Study these solved cases before continuing.
{"Molecule": "O=C(Nc1ccc2c(c1)OCO2)c1cc2n(n1)C(C(F)(F)F)CC(c1ccccc1)N2 (centres undefined)", "inhibition, %": -16.3}
{"Molecule": "Cc1nc2c(c(=O)n1CC1CCCO1)c1nc3ccccc3nc1n2CC(C)C (centres undefined)", "inhibition, %": 0.529}
{"Molecule": "CCNc1nc(NC(C)C)nc(N(C#N)C(C)C(=O)N(C)C)n1 (centres undefined)", "inhibition, %": 19.9}
{"Molecule": "CCN(CC)C(=O)CSC1=C(C#N)C(c2ccco2)C(C(=O)OCCOC)=C(C)N1 (centres undefined)", "inhibition, %": 14}
{"Molecule": "Cc1cc(OCC(=O)Nc2ccc3oc(-c4ccncc4)nc3c2)ccc1Cl", "inhibition, %": -0.755}
{"Molecule": "O=C1C2ON(c3ccccc3)C(c3cccnc3)C2C(=O)N1c1ccccc1 (centres undefined)", "inhibition, %": -4.82}

So what does the record say about inhibition for C[C@@H]1C[C@H]2[C@@H]3CCC4=CC(=O)C=C[C@]4(C)[C@@]3(F)[C@@H](O)C[C@]2(C)[C@@]1(O)C(=O)COP(=O)(O)O ?
31.6

What measured inhibition goes with COC(=O)c1ccc(C2/C(=C(/O)c3ccc(OC)cc3)C(=O)C(=O)N2c2cc(C)on2)cc1 (centres undefined) ?
-6.24

Which value of inhibition has been reported for CC1(C)Cc2c(C#N)c(N3CCOCC3)nc(-c3ccccc3)c2CO1 in the records?
-17.1
